Experiment: self-splicing fitness, log relative to wild type (ln ratio); higher = more splicing; Tetrahymena group I intron in knt gene, E. coli kanamycin selection, DiMSum; sequences stand for … in CUCUCU…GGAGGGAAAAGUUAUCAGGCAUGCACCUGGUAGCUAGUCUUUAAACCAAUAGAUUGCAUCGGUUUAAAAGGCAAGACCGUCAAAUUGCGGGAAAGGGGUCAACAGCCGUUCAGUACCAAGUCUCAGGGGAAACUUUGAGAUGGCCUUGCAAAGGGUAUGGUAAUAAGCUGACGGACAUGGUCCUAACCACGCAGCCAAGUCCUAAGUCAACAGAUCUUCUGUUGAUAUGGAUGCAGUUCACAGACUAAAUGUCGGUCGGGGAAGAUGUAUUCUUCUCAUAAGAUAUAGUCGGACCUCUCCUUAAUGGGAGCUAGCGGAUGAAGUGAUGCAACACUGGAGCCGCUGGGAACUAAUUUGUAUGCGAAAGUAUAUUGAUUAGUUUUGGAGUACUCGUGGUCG;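 further: selection with 25 µg/mL kanamycin versus none on LB agar overnight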
Details: 30 °C
Assign 1 whenever self-splicing fitness (ln) does not fall below -3; assign -1 whenever it does.

item_sequence=UCGCAGCAAUAUUACGCCAG assigned_class=1
item_sequence=AUUCAGCAAUAUUACGUAUC assigned_class=-1
item_sequence=CCGGAGCAAUAUUACGCAAU assigned_class=1
item_sequence=ACGAAGCAAUAUUACGCAUU assigned_class=-1
item_sequence=UGCCAGCAAUAUUACGCGGG assigned_class=-1
item_sequence=CUUGAGCAAUAUUACGUGUA assigned_class=1
item_sequence=UGCUAGCAAUAUUACGGCUC assigned_class=1
item_sequence=ACGUAGCAAUAUUACGGUGA assigned_class=1
item_sequence=GUCGAGCAAUAUUACGUCCA assigned_class=1
item_sequence=CAUUAGCAAUAUUACGUCCA assigned_class=-1
item_sequence=GUAGAGCAAUAUUACGUUAA assigned_class=1
item_sequence=GUAAAGCAAUAUUACGCCGG assigned_class=1
item_sequence=GGUUAGCAAUAUUACGGGAU assigned_class=-1
item_sequence=CUGCAGCAAUAUUACGGGUG assigned_class=1
item_sequence=GUCUAGCAAUAUUACGUUAU assigned_class=1
item_sequence=CCCGAGCAAUAUUACGAUAC assigned_class=1

###

Parameter self-splicing fitness (ln): see the listing below.
Assay: self-splicing fitness, log relative to wild type (ln ratio); higher = more splicing; Tetrahymena group I intron in knt gene, E. coli kanamycin selection, DiMSum; sequences stand for … in CUCUCU…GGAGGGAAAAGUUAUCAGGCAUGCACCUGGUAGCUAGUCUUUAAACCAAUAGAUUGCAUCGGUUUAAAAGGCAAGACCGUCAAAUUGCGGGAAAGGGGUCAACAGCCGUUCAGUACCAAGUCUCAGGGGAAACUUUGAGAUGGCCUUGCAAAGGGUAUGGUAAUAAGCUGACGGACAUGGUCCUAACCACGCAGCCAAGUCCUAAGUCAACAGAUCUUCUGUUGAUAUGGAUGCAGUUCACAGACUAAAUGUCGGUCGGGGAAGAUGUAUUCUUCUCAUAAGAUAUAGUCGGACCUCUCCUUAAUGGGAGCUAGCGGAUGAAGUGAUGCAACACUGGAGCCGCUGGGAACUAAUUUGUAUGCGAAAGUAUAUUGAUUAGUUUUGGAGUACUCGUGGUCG
Conditions: 30 °C
measurement name: self-splicing fitness (ln)

item_sequence=UCUUAGCAAUAUUACGGGGG experimental_value=-2.89
item_sequence=UUACAGCAAUAUUACGUGCG experimental_value=-0.895
item_sequence=GAGAAGCAAUAUUACGGAGA experimental_value=-3.8
item_sequence=GGUAAGCAAUAUUACGGGAC experimental_value=-2.69
item_sequence=CCUCAGCAAUAUUACGCCUC experimental_value=-3.76
item_sequence=CCGCAGCAAUAUUACGAGAG experimental_value=-2.62
item_sequence=GCGAAGCAAUAUUACGGGGA experimental_value=-3.69
item_sequence=CUACAGCAAUAUUACGACCG experimental_value=0.86
item_sequence=UAGUAGCAAUAUUACGGAGU experimental_value=-4.27
item_sequence=CAUAAGCAAUAUUACGCUGA experimental_value=-2.49
item_sequence=GUCAAGCAAUAUUACGGUUA experimental_value=-2.2
item_sequence=CACUAGCAAUAUUACGGCGC experimental_value=-2.98
item_sequence=GACAAGCAAUAUUACGGGCU experimental_value=-1.63
item_sequence=GGCCAGCAAUAUUACGAUUG experimental_value=-3.73
item_sequence=AAAGAGCAAUAUUACGGCAA experimental_value=-3.23
item_sequence=AUUGAGCAAUAUUACGCUCU experimental_value=-3.63
